Readings of IC50 for the listed molecules
# ASSAYED_TARGET: mTORC2 (Homo sapiens, UniProt P42345+P62942)
# Construct: endogenous in cells; host or cells: PC3 cells (human prostate adenocarcinoma)
# Sequence (P62942 2-108 limits assumed, other chains not shown): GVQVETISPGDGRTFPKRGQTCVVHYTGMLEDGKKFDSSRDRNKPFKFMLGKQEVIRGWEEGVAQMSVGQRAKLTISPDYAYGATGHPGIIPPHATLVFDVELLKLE
# ASSAY_DETAILS: Inhibition assay for mTORC2: phosphorylation of pAkt at Ser473, AlphaLISA in PC3 cells
# Assay type: cell-based
# RUN_CONDITIONS: read-out: pIC50 mTORC2 (converted)

MOLECULE: COC1C[C@@H]2CC[C@@H](C)[C@@](O)(O2)C(=O)C(=O)N2CCCCC2C(=O)O[C@H]([C@H](C)C[C@@H]2CC[C@@H](OCCCCN3CCOCC3)[C@H](OC)C2)CC(=O)[C@H](C)/C=C(\C)[C@@H](O)[C@@H](OC)C(=O)[C@H](C)C[C@H](C)/C=C/C=C/C=C/1C (some centres unmarked)
IC50: < 1000 nM

MOLECULE: COC1C[C@@H]2CC[C@@H](C)[C@@](O)(O2)C(=O)C(=O)N2CCCCC2C(=O)O[C@H]([C@H](C)C[C@@H]2CC[C@@H](OCCO)[C@H](OC)C2)CC(=O)[C@H](C)/C=C(\C)[C@@H](O)[C@@H](OC)C(=O)[C@H](C)C[C@H](C)/C=C/C=C/C=C/1C (some centres unmarked)
IC50: < 1000 nM

---

# ASSAYED_TARGET: mTORC2 (Homo sapiens, UniProt P42345+P62942)
# Construct: endogenous in cells; host or cells: PC3 cells (human prostate adenocarcinoma)
# ASSAY_DETAILS: Inhibition assay for mTORC2: phosphorylation of pAkt at Ser473, AlphaLISA in PC3 cells
# Format: cell-based
# RUN_CONDITIONS: read-out: pIC50 mTORC2 (converted)
Readings of IC50 for the listed compounds

COMPOUND: COC1C[C@@H]2CC[C@@H](C)[C@@](O)(O2)C(=O)C(=O)N2CCCCC2C(=O)O[C@H]([C@H](C)C[C@@H]2CC[C@@H](OC(=O)NC3C(O)O[C@H](CO)[C@@H](O)[C@@H]3O)[C@H](OC)C2)CC(=O)[C@H](C)/C=C(\C)[C@@H](O)[C@@H](OC)C(=O)[C@H](C)C[C@H](C)/C=C/C=C/C=C/1C (stereo partly shown) [Compound 361]
IC50: < 1000 nM
//
COMPOUND: COCCCOC1C[C@@H]2CC[C@@H](C)[C@@](O)(O2)C(=O)C(=O)N2CCCCC2C(=O)O[C@H]([C@H](C)C[C@@H]2CC[C@@H](O)[C@H](OC)C2)CC(=O)[C@H](C)/C=C(\C)[C@@H](O)[C@@H](OC)C(=O)[C@H](C)C[C@H](C)/C=C/C=C/C=C/1C (stereo partly shown) [Compound 225]
IC50: 1000 to 10000 nM
//
COMPOUND: CO[C@H](COC1C[C@@H]2CC[C@@H](C)[C@@](O)(O2)C(=O)C(=O)N2CCCCC2C(=O)O[C@H]([C@H](C)C[C@@H]2CC[C@@H](O)[C@H](OC)C2)CC(=O)[C@H](C)/C=C(\C)[C@@H](O)[C@@H](OC)C(=O)[C@H](C)C[C@H](C)/C=C/C=C/C=C/1C)c1ccccc1 (stereo partly shown) [Compound 206]
IC50: 1000 to 10000 nM
//
COMPOUND: COC1C[C@@H]2CC[C@@H](C)[C@@](O)(O2)C(=O)C(=O)N2CCCCC2C(=O)O[C@H]([C@H](C)C[C@@H]2CC[C@@H](OC(=O)CN(C)C)[C@H](OC)C2)CC(=O)[C@H](C)/C=C(\C)[C@@H](O)[C@@H](OC)C(=O)[C@H](C)C[C@H](C)/C=C/C=C/C=C/1C (stereo partly shown) [Compound 343]
IC50: < 1000 nM
//
COMPOUND: COC1C[C@@H]2CC[C@@H](C)[C@@](O)(O2)C(=O)C(=O)N2CCCCC2C(=O)O[C@H]([C@H](C)C[C@@H]2CC[C@@H](OC(=O)N(CCO)CCO)[C@H](OC)C2)CC(=O)[C@H](C)/C=C(\C)[C@@H](O)[C@@H](OC)C(=O)[C@H](C)C[C@H](C)/C=C/C=C/C=C/1C (stereo partly shown) [Compound 357]
IC50: < 1000 nM
//
COMPOUND: COC1CC2CCC(C)C(O)(O2)C(=O)C(=O)N2CCCCC2C(=O)OC(C(C)CC2CCC(OCCCN3CCCC(O)C3)C(OC)C2)CC(=O)C(C)C=C(C)C(O)C(OC)C(=O)C(C)CC(C)C=CC=CC=C1C (stereo not shown) [Compound 340]
IC50: < 1000 nM
//
COMPOUND: COC1C[C@@H]2CC[C@@H](C)[C@@](O)(O2)C(=O)C(=O)N2CCCCC2C(=O)O[C@H]([C@H](C)C[C@@H]2CC[C@@H](OC(=O)NCCN3CCCCC3)[C@H](OC)C2)CC(=O)[C@H](C)/C=C(\C)[C@@H](O)[C@@H](OC)C(=O)[C@H](C)C[C@H](C)/C=C/C=C/C=C/1C (stereo partly shown) [Compound 365]
IC50: < 1000 nM
//
COMPOUND: COC1C[C@@H]2CC[C@@H](C)[C@@](O)(O2)C(=O)C(=O)N2CCCCC2C(=O)O[C@H]([C@H](C)C[C@@H]2CC[C@@H](OCCCN(C)C)[C@H](OC)C2)CC(=O)[C@H](C)/C=C(\C)[C@@H](O)[C@@H](OC)C(=O)[C@H](C)C[C@H](C)/C=C/C=C/C=C/1C (stereo partly shown) [Compound 363]
IC50: < 1000 nM
//
COMPOUND: COC1C[C@@H]2CC[C@@H](C)[C@@](O)(O2)C(=O)C(=O)N2CCCCC2C(=O)O[C@H]([C@H](C)C[C@@H]2CC[C@@H](OC(=O)N(C)CCCN(C)C)[C@H](OC)C2)CC(=O)[C@H](C)/C=C(\C)[C@@H](O)[C@@H](OC)C(=O)[C@H](C)C[C@H](C)/C=C/C=C/C=C/1C (stereo partly shown) [Compound 321]
IC50: < 1000 nM
//
COMPOUND: COC1C[C@@H]2CC[C@@H](C)[C@@](O)(O2)C(=O)C(=O)N2CCCCC2C(=O)O[C@H]([C@H](C)C[C@@H]2CC[C@@H](OC(=O)N(C)CCN3CCCCC3)[C@H](OC)C2)CC(=O)[C@H](C)/C=C(\C)[C@@H](O)[C@@H](OC)C(=O)[C@H](C)C[C@H](C)/C=C/C=C/C=C/1C (stereo partly shown) [Compound 318]
IC50: < 1000 nM
//
COMPOUND: COCCO[C@@H]1CC[C@@H](C[C@@H](C)[C@@H]2CC(=O)[C@H](C)/C=C(\C)[C@@H](O)[C@@H](OC)C(=O)[C@H](C)C[C@H](C)/C=C/C=C/C=C(\C)C(OC)C[C@@H]3CC[C@@H](C)[C@@](O)(O3)C(=O)C(=O)N3CCCCC3C(=O)O2)C[C@H]1OC (stereo partly shown) [Compound 315]
IC50: < 1000 nM
//
COMPOUND: CO[C@@H]1C[C@H](C[C@@H](C)[C@@H]2CC(=O)[C@H](C)/C=C(\C)[C@@H](O)[C@@H](OC)C(=O)[C@H](C)C[C@H](C)/C=C/C=C/C=C(\C)C(OC[C@@H](C)O)C[C@@H]3CC[C@@H](C)[C@@](O)(O3)C(=O)C(=O)N3CCCCC3C(=O)O2)CC[C@H]1O (stereo partly shown) [Compound 223]
IC50: > 10000 nM
//
COMPOUND: COC1C[C@@H]2CC[C@@H](C)[C@@](O)(O2)C(=O)C(=O)N2CCCCC2C(=O)O[C@H]([C@H](C)C[C@@H]2CC[C@@H](OC(=O)N(C)CCN3CCOCC3)[C@H](OC)C2)CC(=O)[C@H](C)/C=C(\C)[C@@H](O)[C@@H](OC)C(=O)[C@H](C)C[C@H](C)/C=C/C=C/C=C/1C (stereo partly shown) [Compound 356]
IC50: < 1000 nM

---

Readings of IC50 for the listed molecules
# ASSAYED_TARGET: mTORC2 (Homo sapiens, UniProt P42345+P62942)
# Construct: endogenous in cells; host or cells: PC3 cells (human prostate adenocarcinoma)
# ASSAY_DETAILS: Inhibition assay for mTORC2: phosphorylation of pAkt at Ser473, AlphaLISA in PC3 cells
# Type: cell-based
# RUN_CONDITIONS: read-out: pIC50 mTORC2 (converted)
ATTRIBUTE_MEASURED: IC50

MOLECULE: CO[C@@H]1C[C@H](C[C@@H](C)[C@@H]2CC(=O)[C@H](C)/C=C(\C)[C@@H](O)[C@@H](OC)C(=O)[C@H](C)C[C@H](C)/C=C/C=C/C=C(\C)C(OC3CC3)C[C@@H]3CC[C@@H](C)[C@@](O)(O3)C(=O)C(=O)N3CCCCC3C(=O)O2)CC[C@H]1O (stereo partly drawn) [Compound 209]
ASSAYED_TARGET: mTORC2 (Homo sapiens, UniProt P42345+P62942)
RESULT: < 1000 nM

MOLECULE: COC1C[C@@H]2CC[C@@H](C)[C@@](O)(O2)C(=O)C(=O)N2CCCCC2C(=O)O[C@H]([C@H](C)C[C@@H]2CC[C@@H](OC(=O)NCCN3CCN(C)CC3)[C@H](OC)C2)CC(=O)[C@H](C)/C=C(\C)[C@@H](O)[C@@H](OC)C(=O)[C@H](C)C[C@H](C)/C=C/C=C/C=C/1C (stereo partly drawn) [Compound 367]
ASSAYED_TARGET: mTORC2 (Homo sapiens, UniProt P42345+P62942)
RESULT: < 1000 nM

MOLECULE: COC1C[C@@H]2CC[C@@H](C)[C@@](O)(O2)C(=O)C(=O)N2CCCCC2C(=O)O[C@H]([C@H](C)C[C@@H]2CC[C@@H](OC(=O)N(C)CCN(C)C)[C@H](OC)C2)CC(=O)[C@H](C)/C=C(\C)[C@@H](O)[C@@H](OC)C(=O)[C@H](C)C[C@H](C)/C=C/C=C/C=C/1C (stereo partly drawn) [Compound 359]
ASSAYED_TARGET: mTORC2 (Homo sapiens, UniProt P42345+P62942)
RESULT: < 1000 nM
